assay.remarks: Cytotoxicity against human renal cancer cells after 48 hrs by SRB assay
Format: functional
settings: Cancer cell lines
reported.endpoint: GI50 (nM)
The reply should contain only the number, in nM.

molecule | GI50 / nM
COc1ccc(-c2cc(-c3ccc(Cl)cc3)n(C3C(=O)Nc4ccc(Cl)cc43)n2)cc1 (stereo not given) | 3750
COc1ccc(C2=NN(C3=NC(=O)/C(=C4\C(=O)Nc5ccccc54)S3)C(c3ccc(Cl)cc3)C2)cc1 (stereo not given) | 100000
COc1ccc(C2=NN(C3=NC(=O)/C(=C4\C(=O)Nc5ccc(Cl)cc54)S3)C(c3ccc(Cl)cc3)C2)cc1 (stereo not given) | 200
O=C1N=C(N2N=C(c3ccc4ccccc4c3)CC2c2ccc(Cl)cc2)S/C1=C1/C(=O)Nc2ccccc21 (stereo not given) | 400

Field GI50 (entry CN(C)c1ccc(C2CC(c3ccccc3)=NN2C2=NC(=O)/C(=C3\C(=O)Nc4ccc(Br)cc43)S2)cc1 (stereo not given) ) reads 200
